- Tested on: MDR1
- assay info: Apparent permeability from apical to basolateral side in MDCK2 cells expressing MDR1 at 200 ug/ml by UV-visible spectroscopy
- Format: ADME, cell-based, Canis lupus familiaris, MDCK-II
- conditions used: dog, MDCK-MDR1
property measured: Papp A→B at 200 ug/ml (×10⁻⁶ cm/s)

>>> df
                               query_smiles      property_measured  value_reported
0  CN(Cc1ccccc1)Cc1ccc(COc2ccc3c(CO)cc(=O)oc3c2)cc1.Cl  Papp A→B at 200 ug/ml            19.1

* * *

- experimental target: Acetylcholinesterase (Homo sapiens, UniProt P22303)
- Sequence (P22303 whole entry): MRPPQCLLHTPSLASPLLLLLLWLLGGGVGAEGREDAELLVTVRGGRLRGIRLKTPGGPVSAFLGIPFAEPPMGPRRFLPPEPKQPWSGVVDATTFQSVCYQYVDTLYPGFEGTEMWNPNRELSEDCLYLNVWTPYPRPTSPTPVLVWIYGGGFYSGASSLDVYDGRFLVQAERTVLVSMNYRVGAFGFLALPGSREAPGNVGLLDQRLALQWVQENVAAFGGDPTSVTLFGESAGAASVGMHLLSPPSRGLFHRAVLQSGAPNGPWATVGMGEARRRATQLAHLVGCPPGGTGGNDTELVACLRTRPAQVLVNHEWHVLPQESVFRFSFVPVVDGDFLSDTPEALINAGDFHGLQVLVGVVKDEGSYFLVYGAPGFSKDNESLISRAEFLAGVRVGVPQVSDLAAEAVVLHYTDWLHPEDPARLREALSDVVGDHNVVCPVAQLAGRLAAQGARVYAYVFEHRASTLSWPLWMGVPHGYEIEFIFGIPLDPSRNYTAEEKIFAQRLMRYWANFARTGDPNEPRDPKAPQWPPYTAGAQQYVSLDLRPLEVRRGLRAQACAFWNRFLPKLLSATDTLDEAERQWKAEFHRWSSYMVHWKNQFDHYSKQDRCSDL
- assay info: Inhibition of human recombinant AChE by spectrophotometric Ellman's method
property measured: IC50 (nM)

                                query_smiles                       experimental_target  property_measured  unit_symbol  value_reported
 0  Cc1cc(=O)oc2cc(OCc3ccc(CN(C)Cc4ccc(C#N)cc4)cc3)ccc12  Acetylcholinesterase (Homo sapiens, UniProt P22303)               IC50           nM            8500
 1  CCN(CCCCCCOc1ccc2c(C)c(C)c(=O)oc2c1)Cc1ccccc1  Acetylcholinesterase (Homo sapiens, UniProt P22303)               IC50           nM             440
 2  CN(Cc1ccc(C#N)cc1)Cc1ccc(COc2ccc3ccc(=O)oc3c2)cc1  Acetylcholinesterase (Homo sapiens, UniProt P22303)               IC50           nM            6000
 3  CN(Cc1ccc(COc2ccc3c(CO)cc(=O)oc3c2)cc1)Cc1cccc(Cl)c1  Acetylcholinesterase (Homo sapiens, UniProt P22303)               IC50           nM             330
 4    Cc1c(C)c2ccc(OCCCCCNCc3ccccc3)cc2oc1=O  Acetylcholinesterase (Homo sapiens, UniProt P22303)               IC50           nM             300
 5  Cc1cc2ccc(OCc3ccc(CN(C)Cc4ccccc4)cc3)cc2oc1=O  Acetylcholinesterase (Homo sapiens, UniProt P22303)               IC50           nM             500
 6  Cc1c(C)c2ccc(OCc3ccc(CN(C)Cc4ccccc4)cc3)cc2oc1=O  Acetylcholinesterase (Homo sapiens, UniProt P22303)               IC50           nM             450
 7  Cc1c(C)c2ccc(OCCCCN(C)Cc3ccccc3)cc2oc1=O  Acetylcholinesterase (Homo sapiens, UniProt P22303)               IC50           nM             790
 8  Cc1c(C)c2ccc(OCc3ccc(CN(C)Cc4ccc(C#N)cc4)cc3)cc2oc1=O  Acetylcholinesterase (Homo sapiens, UniProt P22303)               IC50           nM            3900
 9  Cc1c(C)c2ccc(OCCCCCCN(C)Cc3ccccc3)cc2oc1=O  Acetylcholinesterase (Homo sapiens, UniProt P22303)               IC50           nM             340
10  CN(Cc1ccccc1)Cc1ccc(COc2ccc3ccc(=O)[nH]c3c2)cc1  Acetylcholinesterase (Homo sapiens, UniProt P22303)               IC50           nM            1500
11  Cc1cc(=O)oc2cc(OCc3ccc(CN(C)Cc4ccccc4)cc3)ccc12  Acetylcholinesterase (Homo sapiens, UniProt P22303)               IC50           nM             910
12  Cc1cc(=O)oc2cc(OCc3ccc(CN(C)Cc4cccc(Cl)c4)cc3)ccc12  Acetylcholinesterase (Homo sapiens, UniProt P22303)               IC50           nM            1000
13  CN(Cc1ccccc1)Cc1ccc(COc2ccc3ccc(=O)oc3c2)cc1  Acetylcholinesterase (Homo sapiens, UniProt P22303)               IC50           nM             950
14   Cc1c(C)c2ccc(OCCCN(C)Cc3ccccc3)cc2oc1=O  Acetylcholinesterase (Homo sapiens, UniProt P22303)               IC50           nM            1000
